Biological target: UniProt:Q06187
Test: Degradation of BTK protein in Namalwa cells (Western blot; DC50, Dmax)
Conditions: read-out: Dmax (BTK degradation)
The reader will find reported Dmax values listed item by item below.

Reference set (2 entries):
INSERT INTO measurements (molecule, result) VALUES
  ('NC1=NC=NC2C1C(c1ccc(Oc3ccccc3)cc1)=NN2[C@@H]1CCCN(C(=O)N2CC(C3CN(c4ccc5c(c4)CN(C4CCC(=O)NC4=O)C5=O)C3)C2)C1 (stereo partly drawn)', '> 90%'),
  ('Nc1ncnc2c1c(-c1ccc(Oc3ccccc3)cc1)nn2[C@@H]1CCCN(C(=O)CCCN2CCN(c3ccc4c(c3)C(=O)N(C3CCC(=O)NC3=O)C4=O)CC2)C1 (stereo partly drawn)', '> 90%');

// next item, Dmax requested
Prompt line: Report the value of Dmax obtained on UniProt:Q06187 for Nc1ncnc2c1c(-c1ccc(Oc3ccccc3)cc1)nn2C1CCN(CC2CN(CC3CCN(c4ccc5c(c4)CN(C4CCC(=O)NC4=O)C5=O)C3)C2)CC1 (stereo not drawn) .
Response line: > 90%

* * *

Molecular target: BTK (Homo sapiens, UniProt Q06187)
Sequence (Q06187 whole entry): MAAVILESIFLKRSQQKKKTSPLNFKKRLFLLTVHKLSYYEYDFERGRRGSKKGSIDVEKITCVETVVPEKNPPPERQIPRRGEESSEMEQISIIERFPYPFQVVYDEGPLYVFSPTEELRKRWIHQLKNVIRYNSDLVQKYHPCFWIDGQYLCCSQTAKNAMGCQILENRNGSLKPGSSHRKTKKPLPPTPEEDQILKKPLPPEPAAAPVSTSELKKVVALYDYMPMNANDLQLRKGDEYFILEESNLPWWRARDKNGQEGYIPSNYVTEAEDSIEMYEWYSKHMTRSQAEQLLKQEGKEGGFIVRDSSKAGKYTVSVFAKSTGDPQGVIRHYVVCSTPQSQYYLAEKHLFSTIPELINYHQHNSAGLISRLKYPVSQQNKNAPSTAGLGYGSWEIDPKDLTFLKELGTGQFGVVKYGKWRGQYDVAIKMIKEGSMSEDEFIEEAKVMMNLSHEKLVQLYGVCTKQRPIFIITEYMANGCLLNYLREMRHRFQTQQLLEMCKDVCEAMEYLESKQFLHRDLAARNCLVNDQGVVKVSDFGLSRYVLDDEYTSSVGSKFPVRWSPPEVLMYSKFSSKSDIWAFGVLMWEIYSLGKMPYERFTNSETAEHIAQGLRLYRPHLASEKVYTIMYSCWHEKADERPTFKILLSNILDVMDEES
Test: Degradation of BTK protein in Namalwa cells (Western blot; DC50, Dmax)
Conditions: BTK degradation; cell line not given
The reader will find reported DC50 values listed item by item below.

Reference set (4 entries):
INSERT INTO assay_data (compound, result) VALUES
  ('NC(=O)c1c(-c2ccc(Oc3ccccc3)cc2)nn2c1NCCC2C1CCN(C2CCN(C(=O)N3CCC(N4CCN(c5ccc6c(c5)C(=O)N(C5CCC(=O)NC5=O)C6=O)CC4)CC3)CC2)CC1 (stereo not shown)', '0.01 to 0.05 µM'),
  ('NC(=O)c1c(-c2ccc(Oc3ccccc3)cc2)nn2c1NCC[C@H]2C1CCN(C2CCN(C(=O)N3CCC(N4CCC(c5ccc6c(c5)CN(C5CCC(=O)NC5=O)C6=O)CC4)CC3)CC2)CC1 (stereo partly shown)', '0.01 to 0.05 µM'),
  ('Nc1ncnc2c1c(-c1ccc(Oc3ccccc3)cc1)nn2C1CCN(C2CCN(C(=O)N3CCN(C4CCN(c5ccc6c(c5)C(=O)N(C5CCC(=O)NC5=O)C6=O)CC4)CC3)CC2)CC1 (stereo not shown)', '> 0.05 µM'),
  ('NC(=O)c1c(-c2ccc(Oc3ccccc3)cc2)nn2c1NCC[C@H]2C1CCN(C(=O)N2CCC(CN3CCN(c4ccc5c(c4)C(=O)N(C4CCC(=O)NC4=O)C5=O)CC3)CC2)CC1 (stereo partly shown)', '0.01 to 0.05 µM');

Prompt line: Tell me measured DC50 for NC(=O)c1c(-c2ccc(Oc3ccccc3)cc2)nn2c1NCCC2C1CCN(C2CCN(CC3CCN(c4ccc5c(c4)C(=O)N(C4CCC(=O)NC4=O)C5=O)CC3)CC2)CC1 (stereo not shown) please.
Response line: 0.01 to 0.05 µM

Prompt line: Tell me measured DC50 for Nc1ncnc2c1c(-c1ccc(Oc3ccccc3)cc1)nn2[C@@H]1CCCN(C2CCN(C(=O)N3CCC(CCCC4CCN(c5ccc6c(c5)CN(C5CCC(=O)NC5=O)C6=O)CC4)CC3)CC2)C1 (stereo partly shown) please.
Response line: 0.01 to 0.05 µM

Prompt line: Tell me measured DC50 for NC(=O)c1c(-c2ccc(Oc3ccccc3)cc2)nn2c1NCCC2C1CCN(C2CCN(C(=O)N3CCN(c4ccc5c(c4)C(=O)N(C4CCC(=O)NC4=O)C5=O)CC3)CC2)CC1 (stereo not shown) please.
Response line: > 0.05 µM

Prompt line: Tell me measured DC50 for NC(=O)c1c(-c2ccc(Oc3ccccc3)cc2)nn2c1NCCC2C1CCN(C(=O)N2CCN(CCN3CCN(c4ccc5c(c4)C(=O)N(C4CCC(=O)NC4=O)C5=O)CC3)CC2)CC1 (stereo not shown) please.
Response line: 0.01 to 0.05 µM

Prompt line: Tell me measured DC50 for Nc1ncnc2c1c(-c1ccc(Oc3ccccc3)cc1)nn2C1CCN(C2CCN(CCN3CCN(c4ccc5c(c4)C(=O)N(C4CCC(=O)NC4=O)C5=O)CC3)CC2)CC1 (stereo not shown) please.
Response line: 0.01 to 0.05 µM

Prompt line: Tell me measured DC50 for Nc1ncnc2c1c(-c1ccc(Oc3ccccc3)cc1)nn2C1CCN(C2CCN(C(=O)N3CCN(c4ccc5c(c4)C(=O)N(C4CCC(=O)NC4=O)C5=O)CC3)CC2)CC1 (stereo not shown) please.
Response line: > 0.05 µM
